Below, each entry is listed alongside its reported Papp A→B at 1 h, 10 μM.
Tested on: MDR1 (P-glycoprotein)
Assay: MDR1-MDCK effective efflux assay (Transwell, 10 μM, 1 hour), MDR1-MDCK cells
Assay type: in vitro ADME
Details: dog, MDCK-MDR1, pH 7.4, MDR1-MDCK cells, apical to basolateral (A>B), 10 μM, 1 hour; read-out: Papp AB MDR1

{"columns": ["molecule", "Papp A→B at 1 h, 10 μM"],
 "data": [
  ["O=C1OCC2c3nnc(C4CC5(C4)CN(c4ccc(F)cn4)C5)n3-c3ccc(Cl)cc3CN12 (stereo not shown) [compound 200]", "< 7 ×10⁻⁶ cm/s"],
  ["COC(=O)N1Cc2cc(Cl)ccc2-n2c(nnc2C2CC3(C2)CN(c2ncccn2)C3)C1 [compound 95]", "< 7 ×10⁻⁶ cm/s"],
  ["CC(=O)N1Cc2cc(Cl)ccc2-n2c(nnc2C2CC3(C2)CN(c2ccc(F)cn2)C3)C1 [compound 64]", "< 7 ×10⁻⁶ cm/s"],
  ["Clc1ccc2c(c1)CN(C1CC1)Cc1nnc(C3CC4(C3)CN(c3ccccn3)C4)n1-2 [compound 56]", "> 20 ×10⁻⁶ cm/s"],
  ["O=C(C(F)F)N1Cc2cc(Cl)ccc2-n2c(nnc2C2CC3(C2)CN(c2ccccn2)C3)C1 [compound 122]", "7 to 10 ×10⁻⁶ cm/s"],
  ["O=C(OC1CC1)N1Cc2cc(Cl)ccc2-n2c(nnc2C2CC3(C2)CN(c2ccc(F)cn2)C3)C1 [compound 90]", "> 20 ×10⁻⁶ cm/s"],
  ["COC(=O)N1Cc2cc(Cl)ccc2-n2c(nnc2C2CC3(C2)CN(c2ccc(F)cn2)C3)C1 [compound 61]", "10 to 20 ×10⁻⁶ cm/s"],
  ["FC(F)CN1Cc2cc(Cl)ccc2-n2c(nnc2C2CC3(C2)CN(c2ccccn2)C3)C1 [compound 52]", "10 to 20 ×10⁻⁶ cm/s"],
  ["CCC1c2nnc(C3CC4(C3)CN(c3ccc(F)cn3)C4)n2-c2ccc(Cl)cc2CN1C(=O)OC (stereo not shown) [compound 197]", "> 20 ×10⁻⁶ cm/s"],
  ["COC(=O)N1Cc2cc(Cl)ccc2-n2c(nnc2C2CC3(C2)CN(c2ccccn2)C3)C1 [compound 70]", "10 to 20 ×10⁻⁶ cm/s"]
]}
